test system: OVCAR-5 ovarian; test: NCI tumour cell line growth inhibition, 48 h
measurement_label: TGI

>>> df
                                    compound  measurement_label  endpoint_value
 0  O=C=Nc1ccc(Cc2ccc(N=C=O)cc2)cc1 (tested in a mixture with another compound)                TGI      > 25 µg/mL
 1           Nc1nc(Cl)cc(Nc2ccc3c(c2)CCC3)n1                TGI        > 100 µM
 2            O=C(O)/C(=C\c1ccccc1)Cc1ccccc1                TGI        > 100 µM
 3                 O=C1CCC(=O)c2cc(Br)ccc2N1                TGI        > 100 µM
 4      COc1cc2c[n+](C)c3c4ccccc4ccc3c2cc1OC                TGI        > 100 µM
 5  CC1=CCC2(C#N)CCC1C2=O (stereo not drawn)                TGI        > 100 µM
 6          Nc1nc(Cl)c2ncn(Cc3ccccc3CCl)c2n1                TGI         39.8 µM
 7  CCCCCCCCCCCCCCCCCCNc1ccn(C2OC(CO)C(OP(=O)(O)OCC3CCC(n4ccc(N)nc4=O)O3)C2O)c(=O)n1 (stereo not drawn)                TGI        > 100 µM
 8  CC[n+]1[b-](C(C)(C)C)n(/N=C(\C)C(C)(C)C)[b-](C(C)(C)C)[n+]1CC                TGI        > 100 µM
 9    COc1cc2c(cc1OC)-c1cc3ccccc3c(=O)n1CCC2                TGI        > 100 µM
10          COCCN1C2=CCCCC2=Nc2c(N)nc(N)nc21                TGI        > 100 µM
11       CS(=O)(=O)C(=Cc1ccccc1Cl)S(C)(=O)=O                TGI        > 100 µM
12  Cc1c2n(c3ccccc13)CC1C2N(C)OC1(C)C (stereo not drawn)                TGI        > 100 µM
13  CC(C)(C)OC(=O)C(C1NC(C(=O)O)C(C)(C)S1)N1C(=O)c2ccccc2C1=O (stereo not drawn)                TGI        > 100 µM
14  CCOC(=O)c1sc2nc(SC)nc(Nc3ccc(OC)c(OC)c3)c2c1N                TGI        > 100 µM
15  Nc1nc(Nc2ccc(Cl)cc2)sc1C(=O)c1cc2ccccc2oc1=O                TGI        > 100 µM
16                O=C(c1nsc(Cl)c1Cl)N1CCCCC1                TGI        > 100 µM
17  Cc1ccc(N2C(=O)/C(=c3\s/c(=C(/N)O)c(=N)n3-c3ccccc3)SC2=S)cc1                TGI        > 100 µM
18  CCN(C)S(=O)(=O)Nc1cccc(Nc2ncnc3cc(NC(=O)CCl)ccc23)c1Cl                TGI         6.76 µM
19  COC(=O)[C@]1(c2cc3ccccc3[nH]2)CC2CN(CC(=O)N(C)OC)C1C1OC(C)(C)OC21 (stereo partly drawn)                TGI        > 100 µM
20  O=C(O)C1Cc2nc[nH]c2CN1 (stereo not drawn)                TGI        > 100 µM
21  Cc1ccc(NC2=C(Cl)C(=O)c3nc(C)ccc3C2=O)cc1                TGI         3.62 µM
22       O=C1C(Nc2ccccn2)=C(I)C(=O)c2ncccc21                TGI         3.25 µM

Reference for the values: PubChem BioAssay (NCI)
